target: CDK6 (Homo sapiens); assay: Filter-binding kinase assay with [γ-32P]ATP and histone H1; assay type: biochemical; conditions: 25 μM ATP, 20 min at 30°C, triplicate
Sequence (Q00534 whole entry): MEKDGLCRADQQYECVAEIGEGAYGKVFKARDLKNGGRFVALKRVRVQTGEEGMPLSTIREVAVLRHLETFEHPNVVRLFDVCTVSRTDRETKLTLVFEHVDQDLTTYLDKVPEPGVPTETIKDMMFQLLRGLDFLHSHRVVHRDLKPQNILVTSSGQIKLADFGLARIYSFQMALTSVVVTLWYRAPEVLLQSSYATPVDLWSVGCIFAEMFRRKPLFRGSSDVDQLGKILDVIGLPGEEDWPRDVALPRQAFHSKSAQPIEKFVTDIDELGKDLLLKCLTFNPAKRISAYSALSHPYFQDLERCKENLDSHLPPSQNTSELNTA
Sequence (P30281 whole entry partner): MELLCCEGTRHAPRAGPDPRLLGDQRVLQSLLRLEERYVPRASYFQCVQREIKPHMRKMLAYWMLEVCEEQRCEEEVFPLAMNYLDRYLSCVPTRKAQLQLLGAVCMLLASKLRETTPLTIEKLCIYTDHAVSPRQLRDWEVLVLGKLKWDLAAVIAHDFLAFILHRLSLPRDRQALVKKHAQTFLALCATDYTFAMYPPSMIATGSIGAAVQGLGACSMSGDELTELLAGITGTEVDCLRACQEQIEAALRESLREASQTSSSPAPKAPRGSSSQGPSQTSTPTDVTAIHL
READOUT_TYPE: IC50 (µM)

| MOLECULE | IC50 (µM) |
| --- | --- |
| O=c1cc(-c2ccc(O)c(O)c2)oc2cc(O)ccc12 [M15, 3’, 4’, 7-trihydroxyflavone] | 23.3 |

[A] O=c1c(O)c(-c2ccc(O)cc2)oc2cc(O)cc(O)c12
[B] O=c1cc(-c2ccccc2)oc2cc(O)cc(O)c12
Among A and B , which shows a numerically higher IC50 result? Write the label of whichever entry you select.
A
